Values from patent US20230271947A1

# Measurement description: Stability investigation of crystal forms A, B, C, D and the amorphous form of the compound of formula (1) (related substances by HPLC, moisture, XRD, DSC)
# Type: physicochemical
# Run parameters: 25° C., RH 92.5%, opened, 10 days

{"Compound": "C[C@H]1CCN1c1nc(N2C[C@@H]3[C@@H](CC(=O)O)[C@@H]3C2)c2c(n1)C(F)(F)CC2 [Crystal form A]", "Trait": "Off-white power"}
{"Compound": "C[C@H]1CCN1c1nc(N2C[C@@H]3[C@@H](CC(=O)O)[C@@H]3C2)c2c(n1)C(F)(F)CC2 [Crystal form D]", "Trait": "Off-white power"}
{"Compound": "C[C@H]1CCN1c1nc(N2C[C@@H]3[C@@H](CC(=O)O)[C@@H]3C2)c2c(n1)C(F)(F)CC2 [Crystal form C]", "Trait": "Off-white power"}
{"Compound": "C[C@H]1CCN1c1nc(N2C[C@@H]3[C@@H](CC(=O)O)[C@@H]3C2)c2c(n1)C(F)(F)CC2 [Amorphous form]", "Trait": "Off-white power"}

---

# Measurement description: Stability investigation of crystal forms A, B, C, D and the amorphous form of the compound of formula (1) (related substances by HPLC, moisture, XRD, DSC)
# Format: physicochemical
# Run parameters: 60° C., closed, 10 days
Entry flag: satisfied if Moisture % reaches 0.09%; not satisfied if it does not.

Worked set:
{"Compound": "C[C@H]1CCN1c1nc(N2C[C@@H]3[C@@H](CC(=O)O)[C@@H]3C2)c2c(n1)C(F)(F)CC2 [Crystal form A]", "Classification": "satisfied"}
{"Compound": "C[C@H]1CCN1c1nc(N2C[C@@H]3[C@@H](CC(=O)O)[C@@H]3C2)c2c(n1)C(F)(F)CC2 [Amorphous form]", "Classification": "satisfied"}
{"Compound": "C[C@H]1CCN1c1nc(N2C[C@@H]3[C@@H](CC(=O)O)[C@@H]3C2)c2c(n1)C(F)(F)CC2 [Crystal form C]", "Classification": "not satisfied"}

I'd appreciate it if you could say whether C[C@H]1CCN1c1nc(N2C[C@@H]3[C@@H](CC(=O)O)[C@@H]3C2)c2c(n1)C(F)(F)CC2 [Crystal form B] has Moisture % at least equal to 0.09%.
satisfied

---

# Measurement description: Stability investigation of crystal forms A, B, C, D and the amorphous form of the compound of formula (1) (related substances by HPLC, moisture, XRD, DSC)
# Assay type: physicochemical
# Run parameters: Avoid light for 18 days
Readout: Moisture % (%)
Value expressed in %; do not type the unit.

Consider the worked cases shown below.
{"Compound": "C[C@H]1CCN1c1nc(N2C[C@@H]3[C@@H](CC(=O)O)[C@@H]3C2)c2c(n1)C(F)(F)CC2 [Amorphous form]", "Observed measurement": 1.26}
{"Compound": "C[C@H]1CCN1c1nc(N2C[C@@H]3[C@@H](CC(=O)O)[C@@H]3C2)c2c(n1)C(F)(F)CC2 [Crystal form A]", "Observed measurement": 0.47}
{"Compound": "C[C@H]1CCN1c1nc(N2C[C@@H]3[C@@H](CC(=O)O)[C@@H]3C2)c2c(n1)C(F)(F)CC2 [Crystal form D]", "Observed measurement": 0.048}
{"Compound": "C[C@H]1CCN1c1nc(N2C[C@@H]3[C@@H](CC(=O)O)[C@@H]3C2)c2c(n1)C(F)(F)CC2 [Crystal form B]", "Observed measurement": 0.17}

# ---- query compound ----
Name the recorded Moisture % of the item C[C@H]1CCN1c1nc(N2C[C@@H]3[C@@H](CC(=O)O)[C@@H]3C2)c2c(n1)C(F)(F)CC2 [Crystal form C] in your answer.
0.13
